Sourced from PubChem BioAssay (NCATS)

target: D(1A) dopamine receptor (Homo sapiens); experiment: HTS Assay for Allosteric Agonists of the Human D1 Dopamine Receptor: Primary Screen for Antagonists (AID 488983); conditions: D1 receptor cell assay, antagonist mode, qHTS titration; series mostly up to 41.8 µM;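 further: calcium flux response to an EC80 dopamine challenge measured with no-wash dye; nearly all actives have a fitted effect of over 65% in size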
Records with an inconclusive call do not appear. Active and inactive are the calls of the source. The call rests on the fitted dose curve; in most records, active means well fitted inhibition curve with a large enough effect; inconclusive means small, poorly fitted or top-dose-only effect, or effect the other way; inactive means flat fitted curve, though single readings scatter.
Would you mind answering with one of these outcomes? 1.0 for active, 0.0 for inactive

| Compound | Tgt | Classification |
| --- | --- | --- |
| CNc1ncnc2c1ncn2[C@@H]1O[C@H](CO)[C@@H](O)[C@H]1O | D(1A) dopamine receptor (Homo sapiens) | 0.0 |
| COC(=O)c1c(C)[nH]c(C)c1C(=O)c1ccccc1Cc1ccccc1 | D(1A) dopamine receptor (Homo sapiens) | 0.0 |
| CCCCCCCCCCCCCCCCCCNC(=O)OCC(COP(=O)([O-])OCC[n+]1ccsc1)OC (stereo unspecified) | D(1A) dopamine receptor (Homo sapiens) | 0.0 |
| N#C/C(=C\c1ccc(O)c(O)c1)C(=O)c1ccc(O)c(O)c1 | D(1A) dopamine receptor (Homo sapiens) | 0.0 |
| CC(C)NCC(O)COc1cccc2ccccc12 (stereo unspecified) | D(1A) dopamine receptor (Homo sapiens) | 0.0 |

// param item: CN=c1nc(-c2ccccc2)n(-c2ccccc2)s1 ; yields the recorded call
1.0

What outcome does the record of this test show for CN(C)CCCO[C@@H]1[C@H]2OC(C)(C)O[C@H]2O[C@@H]1[C@H](O)CO ?
0.0

Check the results log: what was the call for CC(C)NC[C@H](O)COc1cccc2[nH]ccc12 ?
0.0

Returns: the outcome recorded for COc1ccccc1CNCCCCCCNCCCCCCCCNCCCCCCNCc1ccccc1OC in this assay.
0.0

Status in this test for CCCN(CC1CC1)c1nc(C)nc(Nc2c(Cl)cc(Cl)cc2Cl)c1Cl ?
0.0

Per the assay record, what outcome was assigned to CC(=O)/C=C1\C(=O)N(C)c2ccccc21 ?
1.0

* * *

molecular target: Nuclear receptor subfamily 1 group I member 2 (Rattus norvegicus) (UniProt Q9R1A7); assay: qHTS assay for small molecule activators of the rat pregnane X receptor (rPXR) signaling pathway (AID 651751); conditions: rPXR reporter cells, luciferase (One-Glo), 24 h; further: 0% is about no effect
Sequence (Q9R1A7 whole entry, looked up): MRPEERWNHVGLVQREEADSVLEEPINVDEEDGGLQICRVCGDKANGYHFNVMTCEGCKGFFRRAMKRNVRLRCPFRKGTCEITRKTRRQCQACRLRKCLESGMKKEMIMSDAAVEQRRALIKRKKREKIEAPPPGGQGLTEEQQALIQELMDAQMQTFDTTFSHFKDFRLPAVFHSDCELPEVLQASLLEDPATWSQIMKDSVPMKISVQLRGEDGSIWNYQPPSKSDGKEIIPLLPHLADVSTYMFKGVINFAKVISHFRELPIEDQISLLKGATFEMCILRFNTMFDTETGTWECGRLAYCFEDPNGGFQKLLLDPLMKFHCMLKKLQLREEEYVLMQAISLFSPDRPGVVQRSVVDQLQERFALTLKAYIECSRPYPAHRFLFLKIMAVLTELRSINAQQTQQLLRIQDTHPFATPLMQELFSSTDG
Endpoint label: max response (%)
Dear colleague, please return just the value in %, with no unit written.

| Molecule | Result unit | max response |
| --- | --- | --- |
| Oc1ccccc1O | % | 2.32 |

Item under review: O=C(O)/C=C\C(=O)O . Reported max response?
4.35

* * *

assay: Stat Signaling Pathway (AID 446); settings: ME-180 (cervical carcinoma) SIE beta-lactamase reporter, IL-6 stimulated, 5 h; at 17.2 µM (top of the series);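 further: ME-180 cervical cancer cells given 40 pM IL-6 alongside compound; SIE-controlled beta-lactamase reporter measured as 460/530 nm FRET emission ratio; on the % scale 0 is the no-effect control and ±100 the full control effect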
Records with an inconclusive call do not appear.
Endpoint label: activity, negative = inhibition (%)
The answer is to be given in %; state only the numeric part.

Param item = Nc1ccc(O)c(C(=O)O)c1 ; retrieve measured activity, negative = inhibition.
-23.9

Requested field: activity, negative = inhibition. Item: Nc1cc(-c2ccncc2)c[nH]c1=O
-17.5

Sample CC1(C)S[C@@H]2[C@H](NC(=O)[C@H](N)c3ccccc3)C(=O)N2[C@H]1C(=O)O — what was its activity, negative = inhibition?
1.21

activity, negative = inhibition lookup needed for Cc1nc2sccn2c(=O)c1CCN1CCC(=C(c2ccccc2)c2ccc(F)cc2)CC1 , thanks.
-13.7

Consider the compound shown here: Cc1ccc(C(=O)c2ccc(CC(=O)O)n2C)cc1 What is its recorded activity, negative = inhibition?
-8.7

Requested field: activity, negative = inhibition. Item: OC[C@H]1O[C@@H](n2cnc3c(NC4CCCC4)ncnc32)[C@H](O)[C@@H]1O
15.8

Given CC(C)Cc1ccc([C@H](C)C(=O)O)cc1 , state its recorded activity, negative = inhibition.
-0.514

# query: activity, negative = inhibition of entry Cc1c(Nc2ncccc2C(=O)O)cccc1C(F)(F)F
-19.6

Would you kindly share the measured activity, negative = inhibition for CNCC[C@H](Oc1ccc(C(F)(F)F)cc1)c1ccccc1 ?
-1.77

Consider the compound CN1[C@@H](CC(=O)c2ccccc2)CCC[C@H]1C[C@H](O)c1ccccc1 and give its measured activity, negative = inhibition.
5.71

Reported activity, negative = inhibition, compound OC[C@H]1O[C@@H](n2cnc3c(Nc4ccccc4)ncnc32)[C@H](O)[C@@H]1O : ____
17.7
